# pKi CCK-A per entry
Biological target: CCK-A receptor
Assay: CCK-A receptor binding (Pancreas Assay)
Counter-ions that a name gives are not always drawn.

N[C@@H](CO)CN1C(=O)C(NC(=O)Nc2ccccc2)C(=O)N(CC23CC4CC(CC(C4)C2)C3)c2ccccc21 (stereo partly shown) [Example 12, hydrochloride]
5.04
O=C(Nc1ccccc1)NC1C(=O)N(CCN2CCOCC2)c2ccccc2N(CC23CC4CC(CC(C4)C2)C3)C1=O (stereo not shown) [Example 9]
5.69
COc1ccc(NC(=O)NC2C(=O)N(CCC(C)C)c3ccccc3N(CCN3CCOCC3)C2=O)cc1 (stereo not shown)
5.29

Here's the next entry for you.
# query: pKi CCK-A of entry CN(C)CCN1C(=O)C(NC(=O)Nc2ccccc2)C(=O)N(CC23CC4CC(CC(C4)C2)C3)c2ccccc21 (stereo not shown)
5.49

---

Molecular target: CCK-B receptor (Cavia porcellus, UniProt H0VZC5)
Construct: CCK-B receptor (guinea pig cortex assay); from tissue; host or cells: guinea pig cortex
Assay: CCK-B receptor binding (guinea pig cortex assay)
Details: CCK-B receptor, guinea pig cortex assay; read-out: pKi CCK-B (converted)
# Ki per entry

Known results for compounds:
CC(C)CCN1C(=O)C(NC(=O)Nc2ccc(C(F)(F)F)cc2)C(=O)N(CCN2CCOCC2)c2ccccc21 (centres unmarked)
3.63 nM
O=C(Nc1ccccc1)NC1C(=O)N(CCN2CCOCC2)c2cc(F)ccc2N(CC23CC4CC(CC(C4)C2)C3)C1=O (centres unmarked)
4.37 nM
O=C(Nc1ccccc1)NC1C(=O)N(CCN2CCCC2)c2ccccc2N(CC23CC4CC(CC(C4)C2)C3)C1=O (centres unmarked)
1.05 nM
CC(C)CCN1C(=O)C(NC(=O)Nc2ccccc2)C(=O)N(CCN2CCOCC2)c2ccccc21 (centres unmarked)
2.88 nM
CC(C)CCN1C(=O)C(NC(=O)Nc2ccc(O)cc2)C(=O)N(CCN2CCOCC2)c2ccccc21 (centres unmarked)
7.41 nM

# query: Ki of entry CCN(CC)CCN1C(=O)C(NC(=O)Nc2ccccc2)C(=O)N(CC2CCCCC2)c2ccccc21 (centres unmarked)
1.02 nM

Same for CCN(CC)CCN1C(=O)C(NC(=O)Nc2ccccc2)C(=O)N(CCC(C)C)c2ccccc21 (centres unmarked)
1.58 nM

Same for CC(C)CCN1C(=O)C(NC(=O)Nc2ccccc2)C(=O)N(CCN(C)C)c2ccccc21 (centres unmarked)
4.68 nM

---

# pKi CCK-A per entry
Biological target: CCK-A receptor
Assay: CCK-A receptor binding (Pancreas Assay)

Known results for compounds:
O=C(Nc1ccccc1)NC1C(=O)N(CCN2CCOCC2)c2cc(F)ccc2N(CC23CC4CC(CC(C4)C2)C3)C1=O (stereo not shown) [Example 14]
5.88
Cc1cccc(NC(=O)NC2C(=O)N(CCN3CCCCCC3)c3ccccc3N(c3ccccc3)C2=O)c1 (stereo not shown) [Example 17]
5.08
CC(C)CCN1C(=O)C(NC(=O)Nc2ccc(C(F)(F)F)cc2)C(=O)N(CCN2CCOCC2)c2ccccc21 (stereo not shown) [Example 16]
5.83

Here's the next entry for you.
# query: pKi CCK-A of entry CCN(CC)CCN1C(=O)C(NC(=O)Nc2ccccc2)C(=O)N(CC2CCCCC2)c2ccccc21 (stereo not shown) [Example 13]
5.82

---

Molecular target: CCK-B receptor (Cavia porcellus, UniProt H0VZC5)
Construct: CCK-B receptor (guinea pig cortex assay); from tissue; host or cells: guinea pig cortex
Sequence (H0VZC5 1-426): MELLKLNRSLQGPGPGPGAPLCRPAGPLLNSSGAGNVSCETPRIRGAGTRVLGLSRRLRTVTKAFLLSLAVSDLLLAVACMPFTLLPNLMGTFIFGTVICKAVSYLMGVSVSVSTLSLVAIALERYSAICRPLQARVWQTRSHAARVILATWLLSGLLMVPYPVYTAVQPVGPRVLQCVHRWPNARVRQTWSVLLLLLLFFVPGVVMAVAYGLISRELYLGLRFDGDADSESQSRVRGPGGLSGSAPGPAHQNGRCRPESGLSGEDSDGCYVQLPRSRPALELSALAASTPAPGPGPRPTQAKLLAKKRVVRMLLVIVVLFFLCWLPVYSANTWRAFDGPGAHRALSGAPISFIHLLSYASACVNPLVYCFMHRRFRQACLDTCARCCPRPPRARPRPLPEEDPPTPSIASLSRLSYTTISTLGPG
Experiment: CCK-B receptor binding (guinea pig cortex assay)
Details: CCK-B receptor, guinea pig cortex assay; read-out: pKi CCK-B (converted)
measurementLabel: Ki
Reply with the number and its unit after it.

Known results for compounds:
CN(C)CCN1C(=O)C(NC(=O)Nc2ccccc2)C(=O)N(CC23CC4CC(CC(C4)C2)C3)c2ccccc21 (stereo not shown)
1.29 nM
O=C(Nc1ccccc1)NC1C(=O)N(CCN2CCOCC2)c2ccccc2N(CC23CC4CC(CC(C4)C2)C3)C1=O (single isomer, unassigned) [Example 11 (isomer 1)]
0.214 nM
CC(C)CCN1C(=O)C(NC(=O)Nc2ccc(Cl)cc2)C(=O)N(CCN2CCOCC2)c2ccccc21 (stereo not shown)
1.95 nM
COc1ccc(NC(=O)NC2C(=O)N(CCC(C)C)c3ccccc3N(CCN3CCOCC3)C2=O)cc1 (stereo not shown)
7.94 nM
CN(C)CCCN1C(=O)C(NC(=O)Nc2ccccc2)C(=O)N(CC23CC4CC(CC(C4)C2)C3)c2ccccc21 (stereo not shown)
3.63 nM
O=C(Nc1ccccc1)NC1C(=O)N(CCN2CCOCC2)c2ccccc2N(CC23CC4CC(CC(C4)C2)C3)C1=O (stereo not shown) [Example 9]
0.575 nM

# query: Ki of entry CC(C)CCN1C(=O)C(NC(=O)Nc2ccccc2)C(=O)N(CCN2CCCCC2)c2ccccc21 (stereo not shown)
6.76 nM

---

Molecular target: CCK-B receptor (Cavia porcellus, UniProt H0VZC5)
Construct: CCK-B receptor (guinea pig cortex assay); from tissue; host or cells: guinea pig cortex
Experiment: CCK-B receptor binding (guinea pig cortex assay)
measurementLabel: Ki (nM)
Kindly provide the numeric value in nM only, without the unit symbol.

# query: Ki of entry Cc1cccc(NC(=O)NC2C(=O)N(CCN3CCCCCC3)c3ccccc3N(c3ccccc3)C2=O)c1 (stereo not shown) [Example 17]
2

---

Molecular target: CCK-A receptor
Assay: CCK-A receptor binding (Pancreas Assay)
# pKi CCK-A per entry

# query: pKi CCK-A of entry CCN(CC)CCN1C(=O)C(NC(=O)Nc2ccccc2)C(=O)N(CCC(C)C)c2ccccc21 (stereo not drawn)
5.39

Same for CC(C)CCN1C(=O)C(NC(=O)Nc2ccccc2)C(=O)N(CCN(C)C)c2ccccc21 (stereo not drawn)
5.48

Same for CC(C)CCN1C(=O)C(NC(=O)Nc2ccccc2)C(=O)N(CCN2CCOCC2)c2ccccc21 (stereo not drawn)
6.17

---

Molecular target: CCK-A receptor
Assay: CCK-A receptor binding (Pancreas Assay)
measurementLabel: pKi CCK-A
Returns: the value as a bare number; no unit string appended.

Known results for compounds:
CC(C)CCN1C(=O)C(NC(=O)Nc2ccccc2)C(=O)N(CCN2CCCCC2)c2ccccc21 (stereo not drawn) [Example 2]
5.69
CC(C)CCN1C(=O)C(NC(=O)Nc2ccc(Cl)cc2)C(=O)N(CCN2CCOCC2)c2ccccc21 (stereo not drawn) [Example 15]
5.99
O=C(Nc1ccccc1)NC1C(=O)N(CCN2CCCC2)c2ccccc2N(CC23CC4CC(CC(C4)C2)C3)C1=O (stereo not drawn) [Example 10]
5.02
CC(C)CCN1C(=O)C(NC(=O)Nc2ccc(O)cc2)C(=O)N(CCN2CCOCC2)c2ccccc21 (stereo not drawn) [Example 5]
5.08
CN(C)CCCN1C(=O)C(NC(=O)Nc2ccccc2)C(=O)N(CC23CC4CC(CC(C4)C2)C3)c2ccccc21 (stereo not drawn) [Example 8]
4.69

Here's the next entry for you.
# query: pKi CCK-A of entry O=C(Nc1ccccc1)NC1C(=O)N(CCN2CCOCC2)c2ccccc2N(CC23CC4CC(CC(C4)C2)C3)C1=O (single isomer, unassigned) [Example 11 (isomer 1)]
5.69
